PROCEDURE DETAILS: Cytotoxicity against mouse peritoneal macrophages after 72 hrs by MTT assay
Assay type: cell-based, Peritoneal macrophage
EXPERIMENTAL CONDITIONS: peritoneal macrophages
Please provide measured CC50 at 72 h for the entries that follow.
Please reply with the bare figure in µM and do not write the unit itself.

Notebook: CCCCCCCCCCCCCCCCOP(=O)([O-])OCC[N+](C)(C)C [MILTEFOSINE] , CC50 at 72 h read as 144

The reported value for `CC(=O)[O-].CCCCCCCCCCn1cc(CO)[n+](C)n1` in terms of CC50 at 72 h is 116

All values here come from ChEMBL document CHEMBL4033653.
